Experiment: Pharmacokinetics in mice, single oral dose (plasma, whole lung)
Conditions: female, CD-1, mouse, in vivo, po, 30 mg/kg, AUC(0-24h) plasma, single 30 mg/kg p.o., female CD-1 mice
Procedure: BDM91288 (5) was dissolved in 10% kleptose hydroxypropyl-β-cyclodextrin in distilled water and administered per os at 30 mg/kg to female CD-1 mice (~25–30 g). The concentration of BDM91288 (5) in plasma and lungs was measured at different time points after administration of a single dose of compounds. […] Samples were analysed using a UPLC system Acquity I Class (Waters), combined with a triple quadrupole mass spectrometer Xevo TQD (Waters). […]
parameter: AUC(0-t)
Quick note: number first, unit second.

Supply reported AUC(0-t) belonging to this compound: Clc1cc2cc(N3CCNCC3)ccc2nc1N1CCNCC1
27 µM·h

---

Test: Pharmacokinetics in mice, single oral dose (plasma, whole lung)
Details: read-out: Cmax whole lung, single 30 mg/kg p.o., female CD-1 mice, listed as BDM91288 (5)
parameter: Cmax (µM)
# output: bare number, implied unit µM

// Input: Clc1cc2cc(N3CCNCC3)ccc2nc1N1CCNCC1 [compound 5] . Output its Cmax only.
225

---

System: K. pneumoniae AcrB^V448E RamR^mut
Test: MIC of antibiotics with and without EPI (REMA), double mutant
Type: cell-based, Klebsiella pneumoniae
Settings: K. pneumoniae AcrB^V448E RamR^mut; No EPI
parameter: Minimum Inhibitory Concentration (mg/L)
Report as a plain number; the unit mg/L is understood.

Some molecules with recorded Minimum Inhibitory Concentration:
smiles_code=CC(C)(O/N=C(\C(=O)N[C@@H]1C(=O)N2C(C(=O)[O-])=C(C[n+]3ccccc3)CS[C@H]12)c1csc(N)n1)C(=O)O parameter="Minimum Inhibitory Concentration" unit_of_measure=mg/L number=1.28
smiles_code=O=C(N[C@H](CO)[C@H](O)c1ccc([N+](=O)[O-])cc1)C(Cl)Cl parameter="Minimum Inhibitory Concentration" unit_of_measure=mg/L number=128
smiles_code=CC(=O)O[C@H]1C[C@@]2(C)[C@@H](C[C@@H](O)[C@H]3[C@@]4(C)CC[C@@H](O)[C@@H](C)[C@@H]4CC[C@@]32C)/C1=C(\CCC=C(C)C)C(=O)O parameter="Minimum Inhibitory Concentration" unit_of_measure=mg/L number=128
smiles_code=CO[C@@H]1[C@@H](OC(N)=O)[C@@H](O)[C@H](Oc2ccc3c(O)c(NC(=O)c4ccc(O)c(CC=C(C)C)c4)c(=O)oc3c2C)OC1(C)C parameter="Minimum Inhibitory Concentration" unit_of_measure=mg/L number=128
smiles_code=CC(=O)NC[C@H]1CN(c2ccc(N3CCOCC3)c(F)c2)C(=O)O1 parameter="Minimum Inhibitory Concentration" unit_of_measure=mg/L number=128

Now let's try a different one.
Give recorded Minimum Inhibitory Concentration. C[C@H]1COc2c(N3CCN(C)CC3)c(F)cc3c(=O)c(C(=O)O)cn1c23
1.28

---

Test: Solubility in PBS pH 7.4
Type: physicochemical
Details: PBS pH 7.4, pH 7.4, aqueous buffer, thermodynamic from solid
parameter: solubility at 24 h

Query solubility at 24 h for Clc1cc2cc(N3CCNCC3)ccc2nc1N1CCNCC1
≥ 1000 µM

---

Experiment: Plasma protein binding by equilibrium dialysis
Assay type: in vitro ADME
Conditions: pH 7.4, mouse plasma, read-out: plasma protein binding, Funbound
Experimental: In vitro plasma protein binding of BDM91288 (5) was measured in mouse plasma using equilibrium dialysis. The RED inserts were placed in a 48-well Teflon Plate (Pierce). Samples were prepared by mixing test compound with plasma at the appropriate concentration to reach a final drug concentration of 10 μM. […]
parameter: fraction unbound at 4 h, 10 μM
Answer with a bare number; do not write a unit.

Given the compound Clc1cc2cc(N3CCNCC3)ccc2nc1N1CCNCC1 [compound 5] , write its reported fraction unbound at 4 h, 10 μM.
0.54
